Provenance of the data: paper PMC8074941

The reader will find reported minimum inhibitory concentration (MIC) T. mentagrophyte values listed item by item below.
- System: T. mentagrophyte
- Assay: microbe, parasite or virus in culture
- Cond: 18 h
Where a SMILES comes first, the peptide text is derived from it.
Measured metric: minimum inhibitory concentration (MIC) T. mentagrophyte (mg/L)

{"Molecule": "CC[C@H](C)[C@@H]1NC(=O)[C@H](C(C)C)NC(=O)[C@H](CC(C)C)NC(=O)[C@@H]2CCCN2C1=O [c-PLVI, cyclo-(pro-leu-val-ile)] (cyclo(PLVI))", "Measure unit": "mg/L", "Experimental value": 62.50}
{"Molecule": "CC[C@H](C)[C@@H]1NC(=O)[C@H](Cc2ccccc2)NC(=O)[C@H](CC(C)C)NC(=O)[C@@H]2CCCN2C1=O [c-PLFI, cyclo-(pro-leu-phe-ile)] (cyclo(PLFI))", "Measure unit": "mg/L", "Experimental value": 250}
{"Molecule": "CC[C@H](C)[C@H](NC(=O)[C@H](Cc1ccccc1)NC(=O)[C@H](CCCCN)NC(=O)[C@@H]1CCCN1)C(=O)O [PKFI] (H-PKFI-OH)", "Measure unit": "mg/L", "Experimental value": 500}
{"Molecule": "CC[C@H](C)[C@@H]1NC(=O)[C@H](C)NC(=O)[C@H](CC(C)C)NC(=O)[C@@H]2CCCN2C1=O [c-PLAI, cyclo(pro-leu-ala-ile)] (cyclo(PLAI))", "Measure unit": "mg/L", "Experimental value": 125}
{"Molecule": "CC[C@H](C)[C@H](NC(=O)[C@H](C)NC(=O)[C@H](CCCCN)NC(=O)[C@@H]1CCCN1)C(=O)O [PKAI] (H-PKAI-OH)", "Measure unit": "mg/L", "Experimental value": 500}
{"Molecule": "CC[C@H](C)[C@@H]1NC(=O)[C@H](Cc2ccccc2)NC(=O)[C@H](CCCCN)NC(=O)[C@@H]2CCCN2C1=O [c-PKFI, cyclo-(pro-lys-phe-ile)] (cyclo(PKFI))", "Measure unit": "mg/L", "Experimental value": 125}
{"Molecule": "CC[C@H](C)[C@H](NC(=O)[C@@H]1CCCN1C(=O)[C@H](CC(C)C)NC(=O)[C@@H]1CCCN1)C(=O)O [PLPI] (H-PLPI-OH)", "Measure unit": "mg/L", "Experimental value": 500}
{"Molecule": "CC[C@H](C)[C@@H]1NC(=O)[C@H](C)NC(=O)[C@H](CCCCN)NC(=O)[C@@H]2CCCN2C1=O [c-PKAI, cyclo-(pro-lys-ala-ile)] (cyclo(PKAI))", "Measure unit": "mg/L", "Experimental value": 125}
